The origin of these recorded values is patent US4301169A.

PROCEDURE DETAILS: Acute toxicity (lethal action)
SETUP CONDITIONS: mouse, in vivo, 400 mg/Kg oral, mice, hydrochloride, read-out: Acute Toxicity (Lethal Ratio %)
Method: Each test compound is used in the form of a hydrochloride. The test compound is administered in a dose of 100 or 400 mg/kg to mice for examining the lethal action. Five mice are used for each dose level. The lethal ratio is measured 24 hours after oral administration.
We label by threshold. Values of mortality at 24 h strictly beneath 20% are Y. Values of 20% and up are N.

Example entries and their recorded answers appear below.
INSERT INTO measurements (structure_string, label_class) VALUES
  ('Cc1nccn1-c1ccc(N(C)C)cc1', 'N'),
  ('Cc1nccn1-c1ccc(NC(=O)c2ccc(Cl)cc2)cc1', 'Y'),
  ('Cc1nccn1-c1ccc(N)cc1', 'N'),
  ('Cc1ccc(-n2ccnc2C)cc1C', 'N'),
  ('Cc1ccc(C(=O)Nc2ccc(-n3ccnc3C)cc2)cc1', 'N'),
  ('Cc1nccn1-c1ccc(N)cc1Cl', 'N'),
  ('CC(C)c1nccn1-c1ccc(NC(=O)c2ccc(Cl)cc2)cc1', 'Y'),
  ('CCc1nccn1-c1ccc(NC(=O)c2ccc(Cl)cc2)cc1', 'Y');

Inquiry: Please determine if "CCCCNc1ccc(-n2ccnc2C)cc1" is below 20% in terms of mortality at 24 h.
Reply text: N

Inquiry: Please check: mortality at 24 h for "Cc1nccn1-c1ccc(N)c(C(F)(F)F)c1" , strictly under 20% or not?
Reply text: Y

Inquiry: Field: below-cutoff. Rule: recorded mortality at 24 h strictly less than 20%. Subject: "Cc1nccn1-c1ccc(NC(=O)c2ccc(F)cc2)cc1"
Reply text: Y

Inquiry: Hello, is mortality at 24 h of the following compound strictly smaller than 20%? "Cc1nccn1-c1cccc(N)c1"
Reply text: Y

Inquiry: Determine whether this compound shows mortality at 24 h lower than 20% (ties excluded): "Cc1cn(-c2ccc(N)cc2)c(C)n1"
Reply text: N

Inquiry: Is mortality at 24 h strictly under 20% for the entry "CCc1nccn1-c1ccc(N)cc1" ?
Reply text: N
